Study Target: BACE1 (Homo sapiens, UniProt P56817)
Sequence (P56817 46-501, species assumed): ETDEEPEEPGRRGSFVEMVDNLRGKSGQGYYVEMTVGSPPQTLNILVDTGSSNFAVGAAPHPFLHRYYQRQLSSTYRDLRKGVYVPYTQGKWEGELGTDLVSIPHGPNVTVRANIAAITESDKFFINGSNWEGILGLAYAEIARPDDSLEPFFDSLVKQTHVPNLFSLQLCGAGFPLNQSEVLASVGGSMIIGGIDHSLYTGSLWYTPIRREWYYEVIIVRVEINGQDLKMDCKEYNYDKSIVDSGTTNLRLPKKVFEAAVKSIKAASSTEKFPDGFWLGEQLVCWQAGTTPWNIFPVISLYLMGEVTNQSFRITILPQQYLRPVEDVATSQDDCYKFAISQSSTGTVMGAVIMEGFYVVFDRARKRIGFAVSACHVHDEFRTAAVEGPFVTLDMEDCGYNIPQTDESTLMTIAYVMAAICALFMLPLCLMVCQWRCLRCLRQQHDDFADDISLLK
Test: In vitro enzymatic BACE FRET assay
Assay type: biochemical
Condition Notes: average IC50; read-out: BACE1 Enzyme assay IC50
Property Label: IC50 (nM)

Molecule: C[C@]1(c2cc(Nc3ncnc4cc(Br)cnc34)ccc2F)N=C(N)[C@@]2(CF)CC[C@@H]1S2(=O)=O [Example 47]
Units Symbol: nM
IC50: 7
--
Molecule: CC#CCOc1cnc2c(Nc3ccc(F)c([C@@]4(C)N=C(N)[C@]5(C)CC[C@H]4S5(=O)=O)c3)ncc(F)c2c1 [Example 135]
Units Symbol: nM
IC50: 3
--
Molecule: C[C@]1(c2cc(NC(=O)c3ccc(C(F)(F)F)cc3F)ccc2F)N=C(N)[C@@]2(C)CC[C@@H]1S2(=O)=O [Example 121]
Units Symbol: nM
IC50: 410
--
Molecule: C#CCOc1cnc(C(=O)Nc2ccc(F)c([C@@]3(C)N=C(N)[C@@]4(CF)CC[C@@H]3S4(=O)=O)c2)c(C)n1 [Example 59]
Units Symbol: nM
IC50: 1
--
Molecule: C#C[C@H](C)Oc1cnc(C(=O)Nc2ccc(F)c([C@@]3(C)N=C(N)[C@@]4(CF)CC[C@@H]3S4(=O)=O)c2)cn1 [Example 45]
Units Symbol: nM
IC50: 3

(A) Cc1cc(OC(F)F)cnc1C(=O)Nc1ccc(F)c([C@@]2(C)N=C(N)[C@@]3(CF)CC[C@@H]2S3(=O)=O)c1 [Example 102]
(B) C[C@]12CC[C@H]([C@@](C)(c3cc(NC(=O)c4ccc(C(F)(F)F)cc4F)ccc3F)N=C1N)S2(=O)=O [Example 122]
(C) COc1cnc(C(=O)Nc2ccc(F)c([C@@]3(CF)N=C(N)[C@@]4(C)CC[C@@H]3S4(=O)=O)c2)cn1 (single isomer, unassigned) [Example 120]
(D) C[C@]1(c2cc(Nc3nccc4nc(C(F)(F)F)cnc34)ccc2F)N=C(N)[C@@]2(C)CC[C@@H]1S2(=O)=O [Example 86]
(E) Cc1cc(C(F)(F)F)cnc1C(=O)Nc1ccc(F)c([C@@]2(C)N=C(N)[C@]3(C)CC[C@@]2(C)S3(=O)=O)c1 [Example 49]
Data request: Order the items by recorded IC50; the first position goes to the largest value. Provide the labels, sequenced as the question asks.
Data returned: B, C, D, E, A

---

Test system: Abeta 40
Test: In vivo inhibition of beta-secretase: percent Abeta 40 reduction in CSF and brain
Parameters: species or system rat
Condition Notes: Abeta 40, rat CSF, 10 mpk, after 4 hrs; read-out: % reduction of rat CSF levels at 10 pmk
We begin with a simple list: items and their reported inhibition in vivo at 10 mg/kg.
Quick note: give the figure in %, leave out the unit.

Test Smiles: C[C@]1(c2cc(Nc3ncnc4cc(C(F)(F)F)cnc34)ccc2F)N=C(N)[C@@]2(C)CC[C@@H]1S2(=O)=O
Study Target: Abeta 40
Units Symbol: %
Observed: 59
--
Test Smiles: Cc1cc(C(F)(F)F)cnc1C(=O)Nc1ccc(F)c([C@@]2(C)N=C(N)[C@@]3(CF)CC[C@@H]2S3(=O)=O)c1
Study Target: Abeta 40
Units Symbol: %
Observed: 73
--
Test Smiles: C[C@]1(c2cc(Nc3ncnc4cc(Cl)cnc34)ccc2F)N=C(N)[C@@]2(CF)CC[C@@H]1S2(=O)=O
Study Target: Abeta 40
Units Symbol: %
Observed: 70
--
Test Smiles: COc1cnc(C(=O)Nc2ccc(F)c([C@@]3(C)N=C(N)[C@@]4(C)CC[C@@H]3S4(=O)=O)c2)cn1
Study Target: Abeta 40
Units Symbol: %
Observed: 80
--
Test Smiles: Cc1cc(C(F)F)cnc1C(=O)Nc1ccc(F)c([C@@]2(C)N=C(N)[C@@]3(CF)CC[C@@H]2S3(=O)=O)c1
Study Target: Abeta 40
Units Symbol: %
Observed: 62
--
Test Smiles: COc1cnc2c(Nc3ccc(F)c([C@@]4(C)N=C(N)[C@@]5(C)CC[C@@H]4S5(=O)=O)c3)ncc(F)c2c1
Study Target: Abeta 40
Units Symbol: %
Observed: 52

Data request: Find the measured inhibition in vivo at 10 mg/kg of C[C@]1(c2cc(Nc3nccc4cc(C#N)cnc34)ccc2F)N=C(N)[C@@]2(CF)CC[C@@H]1S2(=O)=O and report it.
Data returned: 67
